A set of molecules tested on Enoyl-[acyl-carrier-protein] reductase [NADPH] FabI (Staphylococcus aureus), with measured log10 IC50:
Log10 applied to IC50; unit prior to transform: nM.

{"molecule": "Cn1c(C2CC(=O)N(c3cccc(Cl)c3)C2)nc2ccccc21 (configuration not stated)", "assayed_system": "Enoyl-[acyl-carrier-protein] reductase [NADPH] FabI (Staphylococcus aureus)", "log10 IC50": 3.55}
{"molecule": "Cn1c(C2CC(=O)N(c3cccc(Br)c3O)C2)nc2ccccc21 (configuration not stated)", "assayed_system": "Enoyl-[acyl-carrier-protein] reductase [NADPH] FabI (Staphylococcus aureus)", "log10 IC50": 3.27}
{"molecule": "CCn1c(C2CC(=O)N(c3cccc(Br)c3C)C2)nc2ccccc21 (configuration not stated)", "assayed_system": "Enoyl-[acyl-carrier-protein] reductase [NADPH] FabI (Staphylococcus aureus)", "log10 IC50": 2.53}
{"molecule": "Cc1c(N2CC(c3nc4ccccc4n3C)CC2=O)cccc1[N+](=O)[O-] (configuration not stated)", "assayed_system": "Enoyl-[acyl-carrier-protein] reductase [NADPH] FabI (Staphylococcus aureus)", "log10 IC50": 3.18}
{"molecule": "Cc1c(Br)cccc1N1C[C@@H](c2nc3ccccc3n2C)CC1=O", "assayed_system": "Enoyl-[acyl-carrier-protein] reductase [NADPH] FabI (Staphylococcus aureus)", "log10 IC50": 1.97}
{"molecule": "Cc1c(Br)cccc1N1CC(c2nc3ccccc3n2C(C)C)CC1=O (configuration not stated)", "assayed_system": "Enoyl-[acyl-carrier-protein] reductase [NADPH] FabI (Staphylococcus aureus)", "log10 IC50": 3.24}

Next:
Measured log10 IC50 of Cc1c(Br)cccc1N1CC(c2nc3ccccc3n2C)CC1=O (configuration not stated) : 2.24

----------
tested on: Staphylococcus aureus; experiment: Antimicrobial activity against methicillin-susceptible Staphylococcus aureus ATCC29213 measured after 24 hrs by CLSI protocol based microdilution method; format: functional
Would you mind telling me the reported MIC of each entry?
One number for each entry, in µg/mL.

// each listed compound needs a value for MIC
1. Cc1cccc(N2CC(c3nc4ccccc4n3C)CC2=O)c1Br (centres undefined)
2. Cc1c(Cl)cccc1N1CC(c2nc3ccccc3n2C)CC1=O (centres undefined)
3. CCCn1c(C2CC(=O)N(c3cccc(Br)c3C)C2)nc2ccccc21 (centres undefined)
4. COc1cccc(N2CC(c3nc4ccccc4n3C)CC2=O)c1C (centres undefined)

Ans:
16
2
4
16

----------
A set of compounds tested on Enoyl-[acyl-carrier-protein] reductase [NADPH] FabI (Staphylococcus aureus), with measured IC50:

Example results:
{"compound": "Cn1c(C2CC(=O)N(c3cccc(Cl)c3Cl)C2)nc2ccccc21 (stereo not given)", "IC50": "495 nM"}
{"compound": "Cn1c(C2CC(=O)N(c3cccc(Cl)c3Br)C2)nc2ccccc21 (stereo not given)", "IC50": "230 nM"}
{"compound": "Cc1c(N2CC(c3nc4ccccc4n3C)CC2=O)cccc1C(F)(F)F (stereo not given)", "IC50": "632 nM"}
{"compound": "COc1cccc(N2CC(c3nc4ccccc4n3C)CC2=O)c1C (stereo not given)", "IC50": "2270 nM"}

Next:
Measured IC50 of Cc1c(Cl)cccc1N1CC(c2nc3ccccc3n2C)CC1=O (stereo not given) : 429 nM
